Hi there, I'd appreciate the recorded TGI for every entry that follows.
System: RXF 393 renal
method-notes: NCI tumour cell line growth inhibition, 48 h

Give recorded TGI with RXF 393 renal for the following compound: O=C(NCCNCCO)c1ccc2oc3cc4ccccc4c(=O)n3c2c1
21.1 µM

Give recorded TGI with RXF 393 renal for the following compound: COCCN1C2=CCCCC2=Nc2c(N)nc(N)nc21
> 100 µM

Give recorded TGI with RXF 393 renal for the following compound: NC(C(=O)O)C(N)C(=O)O (stereo unspecified)
> 100 µM

Give recorded TGI with RXF 393 renal for the following compound: CC(C)(C)SC1=CCC[C@@H](P(=O)(c2ccccc2)c2ccccc2)[C@@H]2CCC[C@@H]12
29.9 µM

Give recorded TGI with RXF 393 renal for the following compound: CCCCNc1nc(SC)nc2nc[nH]c12
> 100 µM

Give recorded TGI with RXF 393 renal for the following compound: O=[N+]([O-])C(=C1Nc2ccccc2N1)C(Cl)=C(Cl)Cl
> 100 µM

====

Test system: CAKI-1 renal
method-notes: NCI tumour cell line growth inhibition, 48 h
reported-property: GI50

Which GI50 is reported for this compound? Clc1ccc2c(NCCCN3CCN(c4nc(-n5ccnc5)nc5ccccc45)CC3)ccnc2c1
8.91 µM

Which GI50 is reported for this compound? C=CC(=O)Nc1cc2c(Nc3ccc(OCc4ccccn4)c(Cl)c3)ncnc2cc1OCCN1CCOCC1
1.86 µM

Which GI50 is reported for this compound? NC1=C(c2nc(-c3cc4ccccc4oc3=O)cs2)C(c2ccco2)c2c(c3ccccc3oc2=O)O1 (stereo not given)
> 150 µg/mL

Which GI50 is reported for this compound? O=C=Nc1ccc(Cc2ccc(N=C=O)cc2)cc1 (tested in a mixture with another compound)
> 25 µg/mL

Which GI50 is reported for this compound? CCN(C)S(=O)(=O)Nc1cccc(Nc2ncnc3cc(NC(=O)CCl)ccc23)c1Cl
3.15 µM

====

Hi there, I'd appreciate the recorded log10(TGI) for every entry that follows.
Test system: HCT-116 colon
method-notes: NCI tumour cell line growth inhibition, 48 h
# values: log10(TGI), units µM

Give recorded log10(TGI) with HCT-116 colon for the following compound: CC1C(c2ccccc2O)c2cc3c(cc2OC1N1CCCC1)OCO3 (stereo not given)
1.63

Give recorded log10(TGI) with HCT-116 colon for the following compound: C/C=C(/C)C(=O)OC1C=C(CO)C(=O)C(OC(=O)/C(C)=C\C)C1C(C)C (stereo not given)
0.22

Give recorded log10(TGI) with HCT-116 colon for the following compound: N#Cc1cccc(Nc2nccc(-c3cnn4ncccc34)n2)c1
0.13

Give recorded log10(TGI) with HCT-116 colon for the following compound: C[C@]12CC[C@@H]3c4ccc(O)cc4CC[C@H]3[C@@H]1CC[C@@H]2NS(=O)(=O)c1cccc(Br)c1
1.01

Give recorded log10(TGI) with HCT-116 colon for the following compound: COc1cc(/C=C2\C(=O)N(c3c(Cl)cccc3Cl)c3ccccc32)cc(OC)c1O
0.68

Give recorded log10(TGI) with HCT-116 colon for the following compound: CCC12C=CCN3CC[C@]4(C(=C(C(=O)OC)[C@@H]1Nc1ccn(C5OC(COC(C)=O)C(OC(C)=O)C5OC(C)=O)c(=O)n1)Nc1ccccc14)C32 (stereo not given in full)
0.87

Give recorded log10(TGI) with HCT-116 colon for the following compound: O=C1Nc2ccccc2SC1C1SC(=S)N(Cc2ccccc2)C1=O (stereo not given)
0.97

Give recorded log10(TGI) with HCT-116 colon for the following compound: O=C(NCCNCCO)c1ccc2oc3cc4ccccc4c(=O)n3c2c1
1.30

====

Tested on: MOLT-4 leukemia
method-notes: NCI tumour cell line growth inhibition, 48 h
Hi there, I'd appreciate the recorded TGI for every entry that follows.
Give the quantity in µM, number only.

Which TGI is reported for this compound? COc1cc2c[n+](C)c3c4ccccc4ccc3c2cc1OC
20.6

Which TGI is reported for this compound? Cc1ccc(C(=O)/C=C/c2ccccc2Cl)cc1
56.1

====

Tested on: COLO 205 colon
method-notes: NCI tumour cell line growth inhibition, 48 h
reported-property: TGI

Which TGI is reported for this compound? COC(=O)C(C(=O)C(=O)Nc1ccccc1OC)c1csc(-n2nc(-c3ccccc3)cc2-c2ccccc2)n1 (stereo unspecified)
> 100 µM

Which TGI is reported for this compound? C=C1C(=O)C=C2C=C3C(=O)C(C)(C)C[C@]3(O)C12C (stereo partly specified)
3.53 µM

Which TGI is reported for this compound? Cc1cccc(NC(=O)CC2C(=O)Nc3ccccc3S2(=O)=O)c1C (stereo unspecified)
> 100 µM

Which TGI is reported for this compound? O=C1/C(=C\c2ccccc2)c2ccccc2N1Cc1ccccc1
33.3 µM

Which TGI is reported for this compound? Oc1cccc(C2SCc3nc4ccccc4n32)c1 (stereo unspecified)
> 100 µM

Which TGI is reported for this compound? O=[N+]([O-])c1ccc(N(CCO)CCO)c2c1no[n+]2[O-]
2.22 µM

Which TGI is reported for this compound? COc1cc2c(cc1OC)-c1cc3ccccc3c(=O)n1CCC2
> 60.2 µM

Which TGI is reported for this compound? c1ccc(C2CC(N3CCOCC3)=Nc3ccccc3N2)cc1 (stereo unspecified)
> 100 µM

Which TGI is reported for this compound? CC1=CCC2(C#N)CCC1C2=O (stereo unspecified)
> 100 µM

Which TGI is reported for this compound? Cc1ccc(C2SC(N)=Nc3c2c(C)nn3C(=O)c2ccncc2)cc1 (stereo unspecified)
> 10 µM

Which TGI is reported for this compound? COc1cc(/C=C2\C(=O)N(c3c(Cl)cccc3Cl)c3ccccc32)cc(OC)c1O
18.7 µM

====

Tested on: CAKI-1 renal
method-notes: NCI tumour cell line growth inhibition, 48 h
Hi there, I'd appreciate the recorded TGI for every entry that follows.
Give the quantity in µM, number only.

Which TGI is reported for this compound? O=C1Nc2ccccc2SC1C1SC(=S)N(Cc2ccccc2)C1=O (stereo not given)
17.6

Which TGI is reported for this compound? Nc1cc(C(F)F)c(-c2nc(N3[C@@H]4CC[C@H]3COC4)nc(N3[C@@H]4CC[C@H]3COC4)n2)cn1
3.21

Which TGI is reported for this compound? CC(C)(C)SC1=CCC[C@@H](P(=O)(c2ccccc2)c2ccccc2)[C@@H]2CCC[C@@H]12
32.9

Which TGI is reported for this compound? O=C(c1cccs1)c1c(C(F)(F)F)n([O-])c2cc(F)c(F)cc2[n+]1=O
4

====

Hi there, I'd appreciate the recorded GI50 for every entry that follows.
Tested on: MDA-MB-231 breast
method-notes: NCI tumour cell line growth inhibition, 48 h

Give recorded GI50 with MDA-MB-231 breast for the following molecule: COC(=O)/C(=C/N1CCN(C(=O)c2ccco2)C1=S)C(C)=O
9010 nM

Give recorded GI50 with MDA-MB-231 breast for the following molecule: CN(C)CCCC1(c2ccc(F)cc2)OCc2cc(-c3ccc4cc[nH]c4c3)ccc21 (stereo unspecified)
1650 nM

Give recorded GI50 with MDA-MB-231 breast for the following molecule: O=C1C(Nc2ccccn2)=C(I)C(=O)c2ncccc21
1530 nM

Give recorded GI50 with MDA-MB-231 breast for the following molecule: CCOC(=O)c1cc(C(=O)c2cc(OC)cc(OC)c2)n2ncccc12
8180 nM

Give recorded GI50 with MDA-MB-231 breast for the following molecule: NC(N)=NC(N)=NCCc1ccccc1
> 100000 nM

Give recorded GI50 with MDA-MB-231 breast for the following molecule: C[C@]12CC[C@@H]3c4ccc(O)cc4CC[C@H]3[C@@H]1CC[C@@H]2NS(=O)(=O)c1cccc(Br)c1
3880 nM

Give recorded GI50 with MDA-MB-231 breast for the following molecule: O=C(Oc1ccc([N+](=O)[O-])cc1)N1CCC(C(O)(c2ccc3c(c2)OCO3)c2ccc3c(c2)OCO3)CC1
> 100000 nM

Give recorded GI50 with MDA-MB-231 breast for the following molecule: C/C=C(/C)C(=O)OC1C=C(CO)C(=O)C(OC(=O)/C(C)=C\C)C1C(C)C (stereo unspecified)
751 nM

Give recorded GI50 with MDA-MB-231 breast for the following molecule: C[C@]12CC[C@H]3[C@@H](C[C@@H]4SC(Nc5cccc(F)c5)=N[C@@]45CC(=O)CC[C@]35C)[C@@H]1CCC2=O
2110 nM

Give recorded GI50 with MDA-MB-231 breast for the following molecule: O=C=Nc1ccc(Cc2ccc(N=C=O)cc2)cc1 (tested in a mixture with another compound)
> 25 µg/mL

Give recorded GI50 with MDA-MB-231 breast for the following molecule: C=CC(=O)Nc1cc2c(Nc3ccc(OCc4ccccn4)c(Cl)c3)ncnc2cc1OCCN1CCOCC1
2170 nM

====

Hi there, I'd appreciate the recorded TGI for every entry that follows.
Test system: 786-0 renal
method-notes: NCI tumour cell line growth inhibition, 48 h

Which TGI is reported for this compound? C=CC(=O)Nc1cc2c(Nc3ccc(OCc4ccccn4)c(Cl)c3)ncnc2cc1OCCN1CCOCC1
> 83.3 µM

Which TGI is reported for this compound? CCOC(=O)Cn1nc2ccc(Nc3nc4ccccc4nc3C(=O)OCC)cc2n1
> 100 µM

Which TGI is reported for this compound? Cn1cc(-c2ccc(CCOC3CCCCO3)cc2)c2c(C#N)cccc21 (stereo unspecified)
> 100 µM

Which TGI is reported for this compound? OC[C@H]1CC(c2nn[nH]n2)[C@H](O)[C@@H]1O (stereo partly specified)
> 100 µM

Which TGI is reported for this compound? c1ccc(-c2cc(-c3cc(-c4ccccn4)[nH]n3)n[nH]2)nc1
> 100 µM

Which TGI is reported for this compound? C=CCCCC1(C)CCCCNC1=O (stereo unspecified)
> 10 µM

Origin of the recorded values: PubChem BioAssay (NCI)
